These data points were gathered from PubChem BioAssay.

Target: Torsin-1A-interacting protein 2 (Homo sapiens) (UniProt Q8NFQ8)
Sequence (Q8NFQ8 whole entry, looked up): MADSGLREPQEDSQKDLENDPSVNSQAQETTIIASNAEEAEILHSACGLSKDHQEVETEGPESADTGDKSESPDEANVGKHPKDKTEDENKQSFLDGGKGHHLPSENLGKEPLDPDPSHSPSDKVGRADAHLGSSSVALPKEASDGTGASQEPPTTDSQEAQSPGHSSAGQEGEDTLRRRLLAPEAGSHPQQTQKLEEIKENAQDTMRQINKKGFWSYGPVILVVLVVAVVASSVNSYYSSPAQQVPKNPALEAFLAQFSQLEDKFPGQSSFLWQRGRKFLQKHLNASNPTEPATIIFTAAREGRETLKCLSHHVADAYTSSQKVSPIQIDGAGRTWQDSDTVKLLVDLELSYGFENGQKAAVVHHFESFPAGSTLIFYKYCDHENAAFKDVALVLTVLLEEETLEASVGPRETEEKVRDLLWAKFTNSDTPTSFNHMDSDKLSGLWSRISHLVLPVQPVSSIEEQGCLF
Test: small molecules binding lysate-expressed LULL1 – cell lysate, human LULL1 lysate, 635/667 nm fluorescence, primary screen (AID 1092);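 note: probe is lysate of COS7 cells overexpressing human LULL1; score merges per-feature 667 nm fluorescence with signal-to-noise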
Conditions: small-molecule microarray, hLULL1 lysate binding, 635 nm fluorescence; higher = more signal
reported property: composite z-score

smiles repr	composite z-score
CN(C)C(=O)[C@]1(CCC(=O)OC(C)(C)C)N=C(c2ccc(OCCCO)cc2)O[C@@H]1c1ccccc1CN=[N+]=[N-]	3.81

I would be grateful if you could provide composite z-score for each of the following entries.
1. C=CCOC(=O)[C@@H]1[C@H]2C(=O)O[C@H](c3ccccc3)[C@H](c3ccccc3)N2[C@H](c2ccc(OCCOC(=O)[C@@H]3C[C@@H]4C(=O)N[C@@H](CCCC[N+](C)(C)C)C(=O)N4[C@@H]3c3ccc(O)cc3)cc2)[C@@]12C(=O)Nc1ccc(I)cc12
2. C=CC[C@@]1(C(=O)NCCCOC)N=C(c2ccc(OCCCO)cc2)O[C@@H]1c1ccccc1N=[N+]=[N-]

output:
1: 2.21; 2: 3.09

====

Test system: XIP peptide (Xip251-270)
Assay: compounds binding XIP fragment 251-270 – biochemical, small-molecule microarray, fluorescence 635/667 nm, 0.5 µg/mL protein, primary screen (AID 1183)
Settings: fluorescence 635 nm, higher = more signal
Give measured composite z-score for each item. Keep answers brief.
Give bare numbers.

Here are 8 molecules together with their reported answers.
molecule	composite z-score
COC(=O)[C@@]1(Cc2ccc(OC)cc2)[C@H]2c3cc(C(=O)N4CCCC4)n(CCc4c[nH]c5ccc(O)cc45)c3C[C@H]2CN1C(=O)c1ccccc1	0.864
CO[C@H]1O[C@H](CO)[C@@H](OC(=O)Nc2ccccc2)[C@H](OC(=O)c2cc3ccccc3[nH]2)[C@H]1OC(=O)c1cc2ccccc2[nH]1	0.783
C=C(COC)/C(=C/C[C@H](OC(=O)c1ccncc1)c1ccccc1OCCO)c1cc(C(=O)OC)ccc1OC	0.12
COCCOC(=O)N1C(=O)[C@@]2(c3cc(C#CC4=CCCCC4)ccc31)[C@H](c1ccccc1OCCO)N1[C@H](c3ccccc3)[C@H](c3ccccc3)OC(=O)[C@H]1[C@@H]2C(=O)NC[C@H](O)c1ccccc1	0.742
Cc1ccc(S[C@]2(C(=O)O)CC(=O)N(C3CCCCC3)[C@@H]2c2ccc(CO)cc2I)cc1	0.526
CC1CC/C=C\[C@H]2OC34C=CCN(c5ccc6ccccc6c5)C(=O)[C@H]3N(CCCO)C(=O)[C@@H]4C2C(=O)O1 (some centres undefined)	0.327
CCOC(=O)C[C@H]1[C@H](OC(=O)c2cc3ccccc3oc2=O)[C@@H](NC(=O)c2ccccc2)c2cc(OCCCO)ccc2N1C(=O)c1ccccc1	0.283
COc1ccc(C#Cc2ccc3c(c2)[C@]2(C(=O)N3)[C@H](C(=O)O)[C@H]3C(=O)O[C@H](c4ccccc4)[C@H](c4ccccc4)N3[C@@H]2c2ccc(O)cc2)cc1	-0.516

I would be grateful if you could provide composite z-score for each of the following entries.
1. C=CC[C@@]1(C(=O)NCCCOC)N=C(c2ccc(OCCCO)cc2)O[C@@H]1c1ccccc1
2. COC(=O)[C@]1(CCS(=O)(=O)c2ccccc2)N=C(c2ccc(OCCCO)cc2)O[C@@H]1c1ccccc1N=[N+]=[N-]
3. CN(C)C(=O)[C@@]1(Cc2ccccc2)N=C(c2ccc(OCCCO)cc2)O[C@H]1c1ccccc1
4. O=C1OCCC/C=C\[C@H]2OC34C=CCN(c5ccc6ccccc6c5)C(=O)[C@H]3N(CCO)C(=O)[C@@H]4C12 (some centres undefined)
5. COc1ccc(CCNC(=O)[C@@]2(Sc3ccc(C)cc3)CC(=O)N(Cc3ccccc3C(F)(F)F)[C@@H]2c2ccc(CO)cc2I)cc1

output:
[0.805, 0.836, 0.444, -1.38, 0.853]

input: Entry COC(=O)[C@@]1(Cc2ccc(OC)cc2)[C@H]2c3cc(C(=O)N4CCCC4)n(CCc4c[nH]c5ccc(OC)cc45)c3C[C@H]2CN1C(=O)c1ccccc1 , system XIP peptide (Xip251-270): what composite z-score was measured?
output: 0.0718

====

Test system: Fibrinogen (Alexa647-labelled)
Experiment: Alexa647-fibrinogen binding to printed small molecules – biochemical, small-molecule microarray, 635/667 nm fluorescence, artefact control for SMM control-protein annotation, profiling panel (AID 1131);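 note: z-score merges 667 nm fluorescence with per-spot signal-to-noise over triplicate slides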
Conditions: fibrinogen-A647 binding fluorescence, higher = more signal
Give measured composite z-score for each item. Keep answers brief.
Answers are plain numbers.

Here are 7 compounds together with their reported answers.
compound	composite z-score
COc1cc2c(cc1O)C(C1CC1)N(C)CC2 (stereo not drawn)	-1.18
CCOC(=O)[C@@H]1CCCCN1C(=O)C(=O)OC	-0.23
O=C1C2C=CC(C(O)c3cccc(O)c3)N(Nc3ccc([N+](=O)[O-])cc3)C2C(=O)N1c1ccccc1 (stereo not drawn)	0.578
CCCCC(CC)C(O)C1C=CC2C(=O)N(c3ccccc3)C(=O)C2N1Nc1ccccc1F (stereo not drawn)	-0.209
C[N+](C)(C)CCCCCCNC(=O)[C@@H]1C[C@@H]2C(=O)N3CCC[C@H]3C(=O)N2[C@@H]1c1ccc(O)cc1	-0.472
C=CCNC(=O)[C@@H]1[C@H]2C(=O)O[C@H](c3ccccc3)[C@H](c3ccccc3)N2[C@H](c2ccc(O)cc2)[C@@]12C(=O)N(C(=O)OCCOC)c1ccc(C#CC3=CCCCC3)cc12	0.708
CC1CC/C=C\[C@H]2OC34C=CCN(c5ccc(Cl)cc5)C(=O)[C@H]3N(C(C)CO)C(=O)[C@]4(C)C2C(=O)O1 (stereo partly drawn)	-0.173

input: Which composite z-score value belongs to CC(CO)N1C(=O)[C@]2(C)C3C(=O)OCCC/C=C\[C@H]3OC23C=CCN(c2ccc(Cl)cc2)C(=O)[C@@H]13 (stereo partly drawn) ?
output: -0.316

====

Test system: XIP peptide (Xip251-270)
Test: compounds binding XIP fragment 251-270 – biochemical, small-molecule microarray, fluorescence 635/667 nm, 0.5 µg/mL protein, primary screen (AID 1183)
Details: fluorescence 635 nm, higher = more signal
Give measured composite z-score for each item. Keep answers brief.
Give bare numbers.

Here are 5 compounds together with their reported answers.
compound	composite z-score
C=CCOC(=O)[C@@H]1[C@H]2C(=O)O[C@H](c3ccccc3)[C@H](c3ccccc3)N2[C@H](c2ccc(OCCOC(=O)[C@@H]3C[C@@H]4C(=O)N[C@@H](CCCC[N+](C)(C)C)C(=O)N4[C@@H]3c3ccc(O)cc3)cc2)[C@@]12C(=O)Nc1ccc(I)cc12	0.808
CC(CO)N1C(=O)[C@@H]2[C@H]3C(=O)OCC=C[C@H]3OC23C=CCN(Cn2nnc4ccccc42)C(=O)[C@@H]13 (stereo not given in full)	-1.27
COc1cc(NN2C(C(O)c3ccc(N(C)C)cc3)C=CC3C(=O)N(c4ccccc4)C(=O)C32)cc(OC)c1OC (stereo not given)	0.0721
CC(C)N1C(=O)C[C@@](C(=O)NC2CC2)(c2ccc([N+](=O)[O-])cc2)[C@H]1c1ccc(CO)cc1	0.396
CC1CC/C=C\[C@H]2OC34C=CCN(C(C)(C)C)C(=O)[C@H]3N(CCCCCO)C(=O)[C@@H]4C2C(=O)O1 (stereo not given in full)	-0.48

I would be grateful if you could provide composite z-score for each of the following entries.
1. COc1cc2c(cc1O)C(c1ccc(CN3CCCC3)cc1)N(Cc1cc3c(cc1Br)OCO3)CC2 (stereo not given)
2. CCCCC(CC)C(O)C1C=CC2C(=O)N(c3ccccc3)C(=O)C2N1Nc1ccc(C#N)cc1 (stereo not given)
3. O=C1OCCC=C[C@H]2OC34C=CCN(c5ccc6ccccc6c5)C(=O)[C@H]3N(CCCO)C(=O)[C@@H]4C12 (stereo not given in full)

output:
1: 0.723; 2: 0.784; 3: -0.617

I would be grateful if you could provide composite z-score for each of the following entries.
1. C=CCC(OC(C)=O)[C@@H]1[C@@H](N(Cc2cccc3ccccc23)C(=O)Cc2ccc(OC)cc2)c2cc(OCCCO)ccc2N1C(=O)c1ccc(-c2ccccc2)cc1 (stereo not given in full)
2. C=CC[C@H](OC(=O)Nc1ccc(SC)cc1)c1ccc(O)c2ccccc12
3. COC(=O)c1c(CC[C@@H](CO)NC(=O)N[C@@H](C)Cn2cc(-c3ccccn3)nn2)oc(C(C)=O)c1C(=O)OC

output:
1: 0.309; 2: 0.728; 3: 0.881

I would be grateful if you could provide composite z-score for each of the following entries.
1. [N-]=[N+]=Nc1ccccc1C[C@@]1(C(N)=O)N=C(c2ccc(OCCCO)cc2)O[C@@H]1c1ccccc1N=[N+]=[N-]
2. CCOC(=O)C[C@H]1[C@H](OC(=O)c2ccc(C(=O)c3ccccc3)cc2)[C@@H](NC(=O)C2CCCCC2)c2cc(OCCCO)ccc2N1C(=O)c1ccc2ccccc2n1
3. C=C[C@@H](OC)[C@H](OC(=O)Nc1ccc(OC)cc1)c1ccc(O)c(F)c1

output:
[0.763, 0.368, 0.741]

I would be grateful if you could provide composite z-score for each of the following entries.
1. Cc1ccc(C(C)CC(O)C2C=CC3C(=O)N(c4ccccc4)C(=O)C3N2Nc2ccccc2)o1 (stereo not given)
2. COC(=O)[C@@]1(Cc2ccc(F)cc2)[C@H]2c3cc(C(=O)N(C)C)n(CCc4ccc(OC)c(Br)c4)c3C[C@H]2CN1C(=O)c1ccccc1
3. O=C1C2C=CC(C(O)c3cccc(O)c3)N(Nc3ccc([N+](=O)[O-])cc3)C2C(=O)N1c1ccccc1 (stereo not given)
4. CC(C)C[C@@H]1NC(=O)[C@@H]2C[C@H](C(=O)NCCCCCCN)[C@H](c3cccc(OCCO)c3)N2C1=O
5. COc1ccccc1CN1C(=O)c2ccccc2[C@](Cc2ccccc2I)(C(=O)O)[C@@H]1c1ccc(CO)cc1

output:
1. 0.518
2. 0.167
3. 0.342
4. 0.891
5. 0.798
